# Test system: Plasmodium berghei
# ASSAY METHOD TEXT: Screen against P. berghei liver stage (PbLuc), transformed with Luciferase, at 10uM
# Type: functional, HepG2
# COND: tested at 10 uM
Among all 69,000 compounds or so, about 8,600 (12%) showed an effect of 50% or more. Many of the other results were omitted from the sample, so strong results are more common in it than they were.
ENDPOINT NAME: INHIBITION (%)
Express your answer in %, writing the number without its unit.

Reported INHIBITION for `CC(C)n1nc2c(cc1=O)CN(c1nc3ccccc3s1)CC2` : what is it?
35

Sample `CCn1nc2c(cc1=O)CN(CC(=O)N(C)c1nccs1)CC2` — what was its INHIBITION?
50.7

Bench note: what INHIBITION did `CN(C(=O)CN1CCc2nn(C)c(=O)cc2C1)c1nccs1` show?
29

Can you share its INHIBITION? I mean this molecule: `CNC(=O)C(C)(C)N(C)C(=O)c1cc(COc2ccccc2OC)[nH]n1`
-4.23

If you can, please state the reported INHIBITION value of `Cc1nc2ncccn2c1C(=O)N1CCc2[nH]cnc2C1` .
22.5

I'd like to know its INHIBITION. The molecule in question is `CCCn1nc2c(cc1=O)CN(CCCN1CCCC1=O)CC2`
6.56

Given `CC(C)n1nc2c(cc1=O)CN(Cc1nc3ccccc3o1)CC2` , state its recorded INHIBITION.
26.5

Report INHIBITION for `CC(=O)Nc1cccc(C(=O)N2CCc3c(nc(N(C)C)[nH]c3=O)C2)c1` please.
41.5

Quick check: INHIBITION of `Cc1nn(C)c2cn(CC(=O)NC3CCSCC3)nc12` ?
19.8

# lookup: INHIBITION of `Cc1nc2sccn2c1C(=O)N1CCc2c(nc(N(C)C)[nH]c2=O)C1`
51.8

INHIBITION for CNC(=O)C1(c2cnccn2)CCCN1C(=O)c1cccc(F)c1 (stereo unspecified) ?
1.5
